# key: entry, value: glycan array binding signal (z-score)
Molecular target: Fuc(a1-3)[Gal3S(b1-4)]Glc6S
Experiment: glycan array binding signal (z-score within array); higher = stronger binding
Details: glycan notation: IUPAC condensed, linker removed
This is one part of a sample in which the strongest signals are shown more often than they occur.
Parameter measured: glycan array binding signal (z-score)

LSECtin (Homo sapiens), Q6UXB4 (protein) MEQESALRELRERVTQGLAEAGRGREDVRTELFRALEAVRLQNNSCEPCPTSWLSFEGSCYFFSVPKTTWAAAQDHCADASAHLVIVGGLDEQGFLTRNTRGRGYWLGLRAVRHLGKVQGYQWVDGVSLSFSHWNQGEPNDAWGRENCVMMLHTGLWNDAPCDSEKDGWICEKKAQLLTPPSALEPRPLQHVVSWGLLTSLAPGADCQRVFSSSSTAAESQKHLAQHSPVQPSAWALGPPCRPHPNSTHADPT = 0.092
LTL (Lotus tetragonolobus), P19664 (protein) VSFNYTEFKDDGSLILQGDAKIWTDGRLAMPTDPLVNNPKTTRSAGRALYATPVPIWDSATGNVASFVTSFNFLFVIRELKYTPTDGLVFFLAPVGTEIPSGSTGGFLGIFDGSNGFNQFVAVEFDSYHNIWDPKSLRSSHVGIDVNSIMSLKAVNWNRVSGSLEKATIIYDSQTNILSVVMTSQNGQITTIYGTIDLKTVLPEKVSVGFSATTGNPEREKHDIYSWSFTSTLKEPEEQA = 0.757
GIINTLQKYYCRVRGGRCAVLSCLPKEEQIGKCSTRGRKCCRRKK [Beta-Defensin 3 (Homo sapiens), P81534] = 3.57
L-Selectin (Mus musculus), P18337 (protein) MVFPWRCEGTYWGSRNILKLWVWTLLCCDFLIHHGTHCWTYHYSEKPMNWENARKFCKQNYTDLVAIQNKREIEYLENTLPKSPYYYWIGIRKIGKMWTWVGTNKTLTKEAENWGAGEPNNKKSKEDCVEIYIKRERDSGKWNDDACHKRKAALCYTASCQPGSCNGRGECVETINNHTCICDAGYYGPQCQYVVQCEPLEAPELGTMDCIHPLGNFSFQSKCAFNCSEGRELLGTAETQCGASGNWSSPEPICQVVQCEPLEAPELGTMDCIHPLGNFSFQSKCAFNCSEGRELLGTAETQCGASGNWSSPEPICQETNRSFSKIKEGDYNPLFIPVAVMVTAFSGLAFLIWLARRLKKGKKSQERMDDPY = 3.99
LcH (Lens culinaris), P02870 (protein) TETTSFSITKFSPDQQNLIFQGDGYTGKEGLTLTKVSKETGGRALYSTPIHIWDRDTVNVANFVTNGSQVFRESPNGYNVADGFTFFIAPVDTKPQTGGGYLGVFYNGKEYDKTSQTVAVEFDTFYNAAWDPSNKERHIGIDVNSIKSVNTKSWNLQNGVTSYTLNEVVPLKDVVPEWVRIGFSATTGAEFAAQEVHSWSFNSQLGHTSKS = -0.119
CTLX (Homo sapiens), Q6UXS0 (protein) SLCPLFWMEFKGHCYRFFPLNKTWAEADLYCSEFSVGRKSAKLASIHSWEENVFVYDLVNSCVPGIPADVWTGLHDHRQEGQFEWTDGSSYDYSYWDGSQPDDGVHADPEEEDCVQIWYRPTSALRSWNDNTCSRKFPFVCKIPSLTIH = 5.87
